Origin of values: patent US20100129369A1

Entries and their AVG A450 nm values follow.
# Target Entity: T1, human c-Met ECD-Fc-Flis (human)
# T1 construct: c-Met ECD fused to Fc with flag- and His-tag at the C-terminus; also called human c-Met extracellular domain (ECD)-Fc-Flis fusion; human c-Met-Flis-Fc ECD
# T1 sequence (chain, as listed by the source): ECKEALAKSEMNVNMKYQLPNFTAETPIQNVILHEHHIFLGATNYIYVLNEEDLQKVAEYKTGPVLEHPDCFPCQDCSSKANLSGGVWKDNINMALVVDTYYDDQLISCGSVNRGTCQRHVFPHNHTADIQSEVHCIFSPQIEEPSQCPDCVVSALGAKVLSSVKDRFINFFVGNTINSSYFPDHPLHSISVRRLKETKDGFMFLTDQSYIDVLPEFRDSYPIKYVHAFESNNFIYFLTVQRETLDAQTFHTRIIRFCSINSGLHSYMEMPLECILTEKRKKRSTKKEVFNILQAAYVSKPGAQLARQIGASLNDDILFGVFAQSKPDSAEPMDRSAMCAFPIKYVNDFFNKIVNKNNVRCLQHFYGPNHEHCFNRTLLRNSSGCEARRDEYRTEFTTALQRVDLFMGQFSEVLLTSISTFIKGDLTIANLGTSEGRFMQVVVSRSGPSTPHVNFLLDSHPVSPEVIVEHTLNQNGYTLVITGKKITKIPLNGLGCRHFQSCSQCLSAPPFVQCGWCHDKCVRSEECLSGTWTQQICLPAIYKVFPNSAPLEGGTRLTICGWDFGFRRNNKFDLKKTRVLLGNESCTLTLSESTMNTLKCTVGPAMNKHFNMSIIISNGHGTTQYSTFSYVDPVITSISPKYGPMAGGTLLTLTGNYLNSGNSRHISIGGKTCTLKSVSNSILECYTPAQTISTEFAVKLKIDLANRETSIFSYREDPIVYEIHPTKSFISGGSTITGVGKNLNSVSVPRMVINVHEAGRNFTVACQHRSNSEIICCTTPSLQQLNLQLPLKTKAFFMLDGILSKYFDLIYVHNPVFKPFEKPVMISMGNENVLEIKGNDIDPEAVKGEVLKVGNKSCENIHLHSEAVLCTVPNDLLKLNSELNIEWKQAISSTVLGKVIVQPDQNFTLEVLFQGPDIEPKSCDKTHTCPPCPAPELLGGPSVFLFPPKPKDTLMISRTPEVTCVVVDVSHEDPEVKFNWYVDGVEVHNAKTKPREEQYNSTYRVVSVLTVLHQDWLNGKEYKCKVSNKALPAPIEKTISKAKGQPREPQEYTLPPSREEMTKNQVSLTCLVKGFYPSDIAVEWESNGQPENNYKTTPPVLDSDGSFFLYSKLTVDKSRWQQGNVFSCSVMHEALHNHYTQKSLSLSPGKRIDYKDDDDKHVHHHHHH
# Experiment Summary: HGF-blocking ELISA: HGF signal on coated c-Met ECD-Fc-Flis; Ab 1953.13 ng/mL
The answer is to be given in A450 nm; state only the numeric part.

Use these answered entries as a reference point.
| Binder | Property | Experimental Value |
| --- | --- | --- |
| D11-S17Y (antibody, human IgG2, kappa, V domains shown, Human engineered IgG2 kappa c-Met antibody; also called D11-S17Y IgG2) VH: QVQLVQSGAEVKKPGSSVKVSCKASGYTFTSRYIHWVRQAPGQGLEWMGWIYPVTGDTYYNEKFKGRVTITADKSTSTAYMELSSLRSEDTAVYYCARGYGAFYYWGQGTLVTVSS VL: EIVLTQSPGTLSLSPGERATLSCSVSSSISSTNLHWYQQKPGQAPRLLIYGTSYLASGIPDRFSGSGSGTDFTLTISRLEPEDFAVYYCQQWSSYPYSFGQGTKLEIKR | AVG A450 nm | 1.23 |
| C8-H241 (antibody, human IgG2, kappa, V domains shown, Named IgG4 kappa; also called Mab C8-H241) VH: QVQLVQSGAEVKKPGASVKVSCKASGYTFTDYYMHWVRQAPGQGLEWMGRVNPNRRGTTYNQKFEGRVTMTTDTSTSTAYMELRSLRSDDTAVYYCARANWLDYWGQGTTVTVSS VL: DIQMTQSPSSLSASVGDRVTITCSVSSSVSSIYLHWYQQKPGKAPKLLIYSTSNLASGVPSRFSGSGSGTDFTLTISSLQPEDFATYYCQVYSGYPLTFGGGTKVEIKR | AVG A450 nm | 0.68 |

Q: Answer with reported AVG A450 nm of C8-co-16 (antibody, human IgG2, kappa, V domains shown, Named IgG4 kappa; also called C8-co-16 IgG4) VH: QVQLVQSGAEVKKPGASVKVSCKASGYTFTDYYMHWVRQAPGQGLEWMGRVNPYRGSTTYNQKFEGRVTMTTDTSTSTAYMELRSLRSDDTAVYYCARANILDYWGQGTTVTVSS VL: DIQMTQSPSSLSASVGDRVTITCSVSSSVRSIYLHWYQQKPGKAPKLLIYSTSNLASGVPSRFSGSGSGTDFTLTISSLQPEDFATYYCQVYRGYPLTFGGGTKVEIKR
Result: 0.6
